B1: Hairpin Ribozyme (parent)
chain: GUCCUCUUUCACGUGCGCGUGAAAGAGAGAAGUGAACCAGAGAAACACACGUUGUGGUAUAUUACCUGGUA

variants of: B1; experiment: self-cleavage, relative activity (ratio to wild type); higher = more cleavage; co-transcriptional
Classification field. Basis: self-cleavage. Definitions: low range: < 0.1; mid range: ≥ 0.1 and < 0.3; high range: ≥ 0.3

- mutation: "U8A A23U"
  qualitativeLabel: "high range"
- mutation: "U52G U62C"
  qualitativeLabel: "mid range"
- mutation: "U7A A49C"
  qualitativeLabel: "mid range"
- mutation: "G25U G34C"
  qualitativeLabel: "high range"
- mutation: "C37A U52C"
  qualitativeLabel: "mid range"
- mutation: "A31U A64C"
  qualitativeLabel: "low range"
- mutation: "C16A U55C"
  qualitativeLabel: "mid range"
- mutation: "G25A A71C"
  qualitativeLabel: "high range"
- mutation: "U8G A59U"
  qualitativeLabel: "mid range"
- mutation: "G13C U20C"
  qualitativeLabel: "high range"
- mutation: "G17C A45G"
  qualitativeLabel: "mid range"
- mutation: "A22U G42A"
  qualitativeLabel: "mid range"
- mutation: "C46G U70A"
  qualitativeLabel: "mid range"
- mutation: "C3G G27C"
  qualitativeLabel: "low range"
- mutation: "C48A A71U"
  qualitativeLabel: "mid range"
- mutation: "A23C A35G"
  qualitativeLabel: "high range"
- mutation: "C18A G32C"
  qualitativeLabel: "low range"
- mutation: "G17C G57A"
  qualitativeLabel: "mid range"
- mutation: "C6G C48G"
  qualitativeLabel: "mid range"
- mutation: "A26G G29A"
  qualitativeLabel: "mid range"
- mutation: "G54U A61U"
  qualitativeLabel: "mid range"
- mutation: "C6U A24G"
  qualitativeLabel: "high range"
- mutation: "G13A G21U"
  qualitativeLabel: "high range"
- mutation: "G32U C66U"
  qualitativeLabel: "mid range"
- mutation: "G13U A28G"
  qualitativeLabel: "high range"
- mutation: "G15A C18G"
  qualitativeLabel: "high range"
- mutation: "C50A G54A"
  qualitativeLabel: "high range"
- mutation: "G1U C65A"
  qualitativeLabel: "low range"
- mutation: "A11U A44U"
  qualitativeLabel: "mid range"
- mutation: "G54C U63G"
  qualitativeLabel: "mid range"
- mutation: "G54C U67C"
  qualitativeLabel: "mid range"
- mutation: "A30G U33G"
  qualitativeLabel: "low range"
- mutation: "U5G G17A"
  qualitativeLabel: "high range"
- mutation: "A35C A45C"
  qualitativeLabel: "mid range"
- mutation: "C38G A49G"
  qualitativeLabel: "low range"
- mutation: "A36U G42U"
  qualitativeLabel: "mid range"
- mutation: "A45U C50A"
  qualitativeLabel: "mid range"
- mutation: "G29U"
  qualitativeLabel: "mid range"
- mutation: "U8G A31U"
  qualitativeLabel: "mid range"
- mutation: "C3U A39G"
  qualitativeLabel: "mid range"
- mutation: "C12G G42A"
  qualitativeLabel: "mid range"
- mutation: "A30C A61U"
  qualitativeLabel: "low range"
- mutation: "G29C A43U"
  qualitativeLabel: "low range"
- mutation: "C38G A41U"
  qualitativeLabel: "high range"
- mutation: "C10U U70A"
  qualitativeLabel: "high range"
- mutation: "G29A A41C"
  qualitativeLabel: "low range"
- mutation: "A23C A36U"
  qualitativeLabel: "high range"
- mutation: "A35U U52A"
  qualitativeLabel: "high range"
- mutation: "C3A G13U"
  qualitativeLabel: "high range"
- mutation: "A44C G51U"
  qualitativeLabel: "mid range"
- mutation: "U7C U14A"
  qualitativeLabel: "high range"
- mutation: "G1A U55C"
  qualitativeLabel: "mid range"
- mutation: "G21U U67C"
  qualitativeLabel: "mid range"
- mutation: "G21A A35C"
  qualitativeLabel: "high range"
- mutation: "G19A U53A"
  qualitativeLabel: "high range"
- mutation: "A23C C50U"
  qualitativeLabel: "high range"
- mutation: "A49U U62C"
  qualitativeLabel: "mid range"
- mutation: "G57A G68A"
  qualitativeLabel: "mid range"
- mutation: "A35G A41U"
  qualitativeLabel: "high range"
- mutation: "C37G C48A"
  qualitativeLabel: "mid range"
- mutation: "A11G G40C"
  qualitativeLabel: "mid range"
- mutation: "U14C U33C"
  qualitativeLabel: "low range"
- mutation: "A36G G51C"
  qualitativeLabel: "high range"
- mutation: "U2C A24C"
  qualitativeLabel: "mid range"
- mutation: "C18U G69U"
  qualitativeLabel: "mid range"
- mutation: "C12G U58G"
  qualitativeLabel: "high range"
- mutation: "A64C C65A"
  qualitativeLabel: "mid range"
- mutation: "U7C G56A"
  qualitativeLabel: "mid range"
- mutation: "G21C A71C"
  qualitativeLabel: "high range"
- mutation: "C50G A59G"
  qualitativeLabel: "mid range"
- mutation: "G32C G34U"
  qualitativeLabel: "mid range"
- mutation: "G21C U63A"
  qualitativeLabel: "low range"
- mutation: "U33G A36C"
  qualitativeLabel: "low range"
- mutation: "A28U U63A"
  qualitativeLabel: "mid range"
- mutation: "U8C A23U"
  qualitativeLabel: "high range"
- mutation: "C6U A28U"
  qualitativeLabel: "high range"
- mutation: "A35U A44G"
  qualitativeLabel: "mid range"
- mutation: "C37A G69U"
  qualitativeLabel: "high range"
- mutation: "G34A U62C"
  qualitativeLabel: "high range"
- mutation: "U62G C65G"
  qualitativeLabel: "mid range"
- mutation: "A36G U52A"
  qualitativeLabel: "high range"
- mutation: "U5A C38G"
  qualitativeLabel: "low range"
- mutation: "G17C G40U"
  qualitativeLabel: "mid range"
- mutation: "U7G U62G"
  qualitativeLabel: "mid range"
- mutation: "C3G A23U"
  qualitativeLabel: "mid range"
- mutation: "A31U U52A"
  qualitativeLabel: "low range"
- mutation: "C4G C50U"
  qualitativeLabel: "mid range"
- mutation: "C3G A41G"
  qualitativeLabel: "mid range"
